- System: K. pneumoniae ATCC 13883
- ASSAY SUMMARY: Antibacterial activity: MIC/MBC, MIC with PAβN, disc-diffusion
- Type: cell-based, Klebsiella pneumoniae
- ASSAY CONDITIONS: K. pneumoniae ATCC 13883; PAβN 20 μg mL^−1, MHB + 1 mM MgSO4
OBSERVABLE: -fold reduction of MIC in the presence of PAβN

Would you kindly share the measured -fold reduction of MIC in the presence of PAβN for COC(=O)CCSc1ccc2c(c1F)[Si](C)(C)OB2O ? 8 -fold

Would you kindly share the measured -fold reduction of MIC in the presence of PAβN for C[Si]1(C)OB(O)c2cc(F)c(SC3CC(=O)NC3=O)c(F)c21 (stereo not shown) ? 4 -fold

Would you kindly share the measured -fold reduction of MIC in the presence of PAβN for C[Si]1(C)OB(O)c2cc(F)c(SCCS(=O)(=O)c3ccccc3)c(F)c21 ? 4 -fold

Would you kindly share the measured -fold reduction of MIC in the presence of PAβN for C[Si]1(C)OB(O)c2ccc(SC3CC(=O)NC3=O)c(F)c21 (stereo not shown) ? 4 -fold

---

- Tested on: K. pneumoniae ATCC 13883
- ASSAY SUMMARY: Antibacterial activity: MIC/MBC, MIC with PAβN, disc-diffusion
- Assay type: cell-based, Klebsiella pneumoniae
- ASSAY CONDITIONS: Klebsiella pneumoniae, ATCC13883; K. pneumoniae ATCC 13883; read-out: MIC
Please provide measured MIC for the entries that follow.

Would you kindly share the measured MIC for C[Si]1(C)OB(O)c2cc(F)c(SC3CC(=O)N(c4ccc(Br)c(C(F)(F)F)c4)C3=O)c(F)c21 (stereo not shown) ? > 200 µg/mL

Would you kindly share the measured MIC for C[Si]1(C)OB(O)c2ccc(SCCC(=O)OCCCCCC[n+]3ccccc3)c(F)c21 ? > 400 µg/mL

Would you kindly share the measured MIC for C[Si]1(C)OB(O)c2cc(F)c(SCCC(=O)Nc3cnccn3)c(F)c21 ? > 400 µg/mL

Would you kindly share the measured MIC for C[Si]1(C)OB(O)c2cc(F)c(SCCC(N)=O)c(F)c21 ? > 400 µg/mL

Would you kindly share the measured MIC for C[Si]1(C)OB(O)c2ccc(S)c(F)c21 ? > 100 µg/mL

Would you kindly share the measured MIC for C[Si]1(C)OB(O)c2ccc(SCCS(=O)(=O)c3ccccc3)c(F)c21 ? > 400 µg/mL

Would you kindly share the measured MIC for C[Si]1(C)OB(O)c2cc(F)c(S(=O)(=O)N3CCOCC3)c(F)c21 ? > 400 µg/mL

---

- Tested on: E. coli ATCC 25922
- ASSAY SUMMARY: Antibacterial activity: MIC/MBC, MIC with PAβN, disc-diffusion
- Format: cell-based, Escherichia coli
- ASSAY CONDITIONS: E. coli ATCC 25922; (-) = zone not observed; paper discs 9 mm
OBSERVABLE: diameter of inhibition zone (mm)
State just the number; it will be interpreted in mm.

Would you kindly share the measured diameter of inhibition zone for COC(=O)CCSc1ccc2c(c1F)[Si](C)(C)OB2O ? 15

Would you kindly share the measured diameter of inhibition zone for C[Si]1(C)OB(O)c2ccc(SCCS(=O)(=O)c3ccccc3)c(F)c21 ? 11

Would you kindly share the measured diameter of inhibition zone for O=C1CN(/N=C/c2ccc([N+](=O)[O-])o2)C(=O)N1 [NF, nitrofurantoin, reference compound] ? 24

Would you kindly share the measured diameter of inhibition zone for C[Si]1(C)OB(O)c2cc(F)c(SC3CC(=O)NC3=O)c(F)c21 (centres unmarked) ? 17

Would you kindly share the measured diameter of inhibition zone for C[Si]1(C)OB(O)c2ccc(SC3CC(=O)NC3=O)c(F)c21 (centres unmarked) ? 19
